Reported INHIBITION values for the following molecules.
# System: Plasmodium berghei
# experimentDescription: Screen against P. berghei liver stage (PbLuc), transformed with Luciferase, at 10uM
# Assay type: functional, HepG2
# conditionLabel: tested at 10 uM
In all, about 69,000 compounds went through this assay and about 8,600 (12%) showed an effect of 50% or more. For the sample, strong results were picked, then their nearest neighbours and some compounds at random.
property: INHIBITION (%)

# molecule, resultUnits, observedValue
rows = [
    ("CC(=O)N1CC[C@H]2OCC[C@@H](C(=O)Nc3cccnc3C)[C@H]2C1", "%", -14.2),
    ("CSCCC(NC(=O)c1ccc2ccccc2n1)C(=O)NC1CC1 (configuration not stated)", "%", 43.7),
    ("Cc1ccsc1C(=O)N1CCc2ncc(Cn3cccn3)n2CC1", "%", 29.4),
    ("COC(=O)CN(C(=O)c1cc(C(C)C)no1)c1cccc(F)c1", "%", 7.38),
    ("NC1(C(=O)NCC2CCCN(Cc3cccc4nonc34)C2)CCC1 (configuration not stated)", "%", 62.8),
    ("Cn1ccnc1CN1CCN(CC(O)c2cc(F)ccc2F)CC1 (configuration not stated)", "%", 21.5),
    ("CCN(CC)C(=O)c1ccc(Cl)c(NC(=O)c2csnn2)c1", "%", 28.5),
    ("Cn1cc(C(=O)CC2CCCN2C(=O)c2coc3ccccc23)cn1 (configuration not stated)", "%", 3.15),
    ("COC(=O)CN(C(=O)c1ccc(Cl)cn1)c1cccc(F)c1", "%", 33.1),
    ("COC(=O)CN(C(=O)C(C)c1c(F)cccc1F)c1cccc(C)n1 (configuration not stated)", "%", 76),
    ("CC(=O)NCCNC(=O)CN1CCCCC1Cn1cncn1 (configuration not stated)", "%", -15.5),
    ("CCC(CC)C(=O)N1CCC2(C1)CN(c1ccccc1)C(=O)CN2C (configuration not stated)", "%", 28.4),
    ("COCCc1noc(CN2CCOC(Cn3cc(C)cn3)C2)n1 (configuration not stated)", "%", -90.9),
    ("COc1ccc(CNC(=O)CCc2nnc3ccccn3c2=O)cc1", "%", 25.3),
    ("Cc1ccc(N2CCCC(NCc3c(C)noc3C)C2)nn1 (configuration not stated)", "%", -89),
    ("CCC(C)C(=O)N(CC(=O)OC)c1cccc(C)n1 (configuration not stated)", "%", 10.6),
    ("O=C(N[C@@H]1CCN(Cc2cccc3nonc23)C[C@H]1O)c1cccnc1", "%", 12.9),
    ("O=C(NCC1CCCN(Cc2cccc3nonc23)C1)c1ccc[nH]1 (configuration not stated)", "%", 70.3),
    ("CCN(CC)S(=O)(=O)c1ccc(C(=O)NC(C)(C#N)C2CC2)cc1 (configuration not stated)", "%", -5.1),
    ("NC1(C(=O)NCC2CCCN(Cc3ccccc3F)C2)CCCC1 (configuration not stated)", "%", 42.4),
    ("CN(C)Cc1cnc2n1CCN(C(=O)Cc1ccsc1)CC2", "%", 11.3),
    ("CSCCC(NC(=O)c1ccc2ccccc2n1)C(=O)N(C)C (configuration not stated)", "%", 60.8),
    ("COCCn1ccc2c(C(=O)NC(C)C)cccc21", "%", 1.8),
    ("CN(C)Cc1cnc2n1CCN(C(=O)Cc1cccc(F)c1)CC2", "%", 37.9),
    ("O=C(c1ccc(-n2cccn2)nc1)N1CCC(c2ccn[nH]2)C1 (configuration not stated)", "%", 23),
    ("Cc1cc(NC(=O)NCC(c2ccc(C)o2)N2CCOCC2)n(C)n1 (configuration not stated)", "%", 45.7),
    ("Cn1ccc2ccc(C(=O)NC3CCOC(C)(C)C3)cc21 (configuration not stated)", "%", 11.7),
    ("COC(=O)CN(C(=O)c1cc(C)c(F)cc1F)c1cccc(C)n1", "%", 61.7),
    ("Cc1sc(Br)cc1S(=O)(=O)NCCN", "%", 45),
    ("CCCc1nc(N2CCCC(C)C2)c2c(n1)c(C)nn2CC (configuration not stated)", "%", 66.5),
    ("CCCc1nc(N2CCCCCC2)c2c(n1)c(C)nn2CC", "%", 78.4),
    ("CCN1CCCC(CNC(=O)C2(c3cccc(Cl)c3)CC2)C1 (configuration not stated)", "%", -2.42),
    ("COC(=O)CN(C(=O)c1cccc(F)c1Cl)c1cccc(C)n1", "%", 29.8),
    ("CCOC(=O)C1CCN(Cc2csc(-c3ccc(C)o3)n2)CC1", "%", 0.914),
    ("CC(=O)NCC1CCCN(Cc2nc(Cc3ccccc3F)no2)C1 (configuration not stated)", "%", 20.4),
    ("Cc1nc(C)c(C(=O)Nc2cccc(CN3CCC(CO)CC3)c2)o1", "%", 61.8),
    ("COC(=O)c1ccc(N2CCN(C(=O)c3cnn(C)c3)C(C)C2)cc1 (configuration not stated)", "%", 63.6),
    ("COCCn1ccc2c(C(=O)NC3CN4CCC3CC4)cccc21 (configuration not stated)", "%", 63.8),
    ("Cc1cncc(C2CCN(C(=O)c3ccc(-n4cccn4)nc3)CC2)n1", "%", -35.5),
    ("CN(C)[C@@H]1CN(C(=O)Cc2cccs2)[C@@H]2CCCO[C@H]12", "%", 24.6),
    ("CC(C)n1cc(C(=O)NC2CCS(=O)(=O)C2)c2ccccc2c1=O (configuration not stated)", "%", 11.1),
    ("CN(CCc1cn[nH]c1)C(=O)CCc1ccc(Cl)cc1", "%", 49),
    ("CCn1cc(C(=O)NC2CCN(S(C)(=O)=O)CC2)c2ccccc21", "%", 2.37),
    ("CNC(=O)C(CCSC)NC(=O)c1ccc2ccccc2n1 (configuration not stated)", "%", 19.1),
    ("Cc1cn2nc(N(C)C3CCCN(c4cccnn4)C3)sc2n1 (configuration not stated)", "%", 11.5),
    ("CSCCC(NC(=O)c1ccc2ccccc2n1)C(=O)NC(C)C (configuration not stated)", "%", 40.5),
    ("Cc1nn(C(C)C)cc1S(=O)(=O)N(C)Cc1nonc1C", "%", 11.8),
]
